# system: HIV reverse transcriptase (Human immunodeficiency virus type 1 group M subtype B, UniProt P04585)
# Construct: purchased Boehringer Mannheim
# test.method.notes: In vitro inhibition test against HIV reverse transcriptase
# Assay type: biochemical
# study.conditions: 1 μg/ml; read-out: Inhibitory activity of HIV-RT (%)
assay.endpoint: inhibition at 1 µg/mL (%)
One number for each entry, in %.

Recorded inhibition at 1 µg/mL, per entry:
# compound, assay.endpoint, readout.number
measured = [
    ("O=C(NCCO)c1ccc(C(=O)N2CCN(CCO)CC2)nc1", "inhibition at 1 µg/mL", 50),
    ("Cc1ncc(CO)c(CNC(=O)c2ccc(C(=O)N3CCN(c4ncccc4NC(C)C)CC3)nc2)c1O", "inhibition at 1 µg/mL", 70),
    ("CC(C)Nc1cccnc1N1CCN(C(=O)c2ccc(C(=O)NCc3cccnc3)cn2)CC1", "inhibition at 1 µg/mL", 82),
    ("CC(C)Nc1cccnc1N1CCN(C(=O)c2ccc(C(=O)NC3CCCC3)cn2)CC1", "inhibition at 1 µg/mL", 51),
    ("CC(C)CNc1cccnc1N1CCN(C(=O)c2ccc(C(=O)NC3CC3)cn2)CC1", "inhibition at 1 µg/mL", 73),
]

Give me inhibition at 1 µg/mL for each of these compounds, listed below.
1. Nc1cccnc1N1CCN(C(=O)c2ccc(C(=O)NC3CCOC3=O)cn2)CC1 (stereo not shown)
2. COCC(C)NC(=O)c1ccc(C(=O)N2CCN(c3ncccc3NC(C)C)CC2)nc1 (stereo not shown)

1. 74
2. 56
